- assayed_target: LXRβ ligand-binding domain (Homo sapiens, UniProt P55055, DUP175-175)
- Construct: amino acids 156-461; NP009052; made in house; host or cells: E. coli
- Sequence (P55055 with tags, fused parts or gaps DUP175-175 limits assumed): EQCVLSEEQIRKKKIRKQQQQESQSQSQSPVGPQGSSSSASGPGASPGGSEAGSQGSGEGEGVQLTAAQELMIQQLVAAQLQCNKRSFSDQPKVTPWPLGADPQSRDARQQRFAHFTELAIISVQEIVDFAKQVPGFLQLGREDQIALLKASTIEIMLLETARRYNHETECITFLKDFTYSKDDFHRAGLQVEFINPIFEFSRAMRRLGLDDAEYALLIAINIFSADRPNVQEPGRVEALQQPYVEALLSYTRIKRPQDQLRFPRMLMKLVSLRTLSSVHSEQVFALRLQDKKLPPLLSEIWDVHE
- protocol_notes: TR-FRETβ activity assay (NCoA3 coactivator peptide recruitment)
- Type: biochemical
- measurement_context: TR-FRET, 1 μM 24(S)-25-epoxycholesterol prestimulation; read-out: FRETβ (EC50 range)
test_readout: EC50

Here is how some compounds turned out for EC50.
>  <compound>
N#Cc1cccc(C#N)c1-c1c(-c2cccc(-c3ccc(S(=O)(=O)O)cc3Cl)c2)n(S(=O)(=O)c2ccc(C(F)F)cc2)c2ccc(F)cc12

>  <EC50>
< 100 nM

$$$$
>  <compound>
N#Cc1sccc1-c1c(-c2cccc(N3CC(C(=O)O)C3)c2)n(S(=O)(=O)c2ccccc2)c2ccc(F)cc12

>  <EC50>
1000 to 10000 nM

$$$$
>  <compound>
N#Cc1sccc1-c1c(-c2cccs2)n(S(=O)(=O)C2CCCCC2)c2ccccc12

>  <EC50>
1000 to 10000 nM

$$$$

The record that follows has no EC50 shown yet.
Qu. Provide measured EC50 value, entry: "N#Cc1cccc(C#N)c1-c1c(-c2cccc(-c3c(F)cc(CC(=O)O)cc3F)c2)n(S(=O)(=O)c2ccc(C(F)F)cc2)c2ccc(F)cc12"
Ans. < 100 nM
